- METHOD_NOTES: In vivo pharmacokinetics in SD rats
- Set-up: species or system Sprague–Dawley (SD) rats
- TEST_CONDITIONS: Sprague-Dawley, rat, plasma, po, 20 mg/kg
PROPERTY_NAME: Cmax (ng/mL)

molecule="Cc1cc(C#N)cc(C)c1Oc1nc(Nc2ccc(C#N)cc2)nc(N)c1Br [ETR, etravirine, reference compound]" recorded_value=110
molecule="Cc1cc(/C=C/C#N)cc(C)c1Oc1nc(NC2CCN(Cc3ccc(S(N)(=O)=O)cc3)CC2)nc2c1SCCC2 [compound 23h]" recorded_value=333

###

- Tested on: HIV-1 WT strain (IIIB)
- METHOD_NOTES: Anti-HIV-1 activity in MT-4 cells, MTT method, WT strain IIIB
- Assay type: cell-based
- TEST_CONDITIONS: read-out: EC50 IIIB; MT-4 cells, MTT method, HIV-1 IIIB (WT)
PROPERTY_NAME: EC50 (µM)

compound="Cc1ccnc2c1NC(=O)c1cccnc1N2C1CC1 [NVP, reference compound]" subject_of_test="HIV-1 WT strain (IIIB)" recorded_value=0.118
